The measurements presented in this section are drawn from the supplement of paper PMC12338614.

B1: library; numbered along this chain (parent)
chain: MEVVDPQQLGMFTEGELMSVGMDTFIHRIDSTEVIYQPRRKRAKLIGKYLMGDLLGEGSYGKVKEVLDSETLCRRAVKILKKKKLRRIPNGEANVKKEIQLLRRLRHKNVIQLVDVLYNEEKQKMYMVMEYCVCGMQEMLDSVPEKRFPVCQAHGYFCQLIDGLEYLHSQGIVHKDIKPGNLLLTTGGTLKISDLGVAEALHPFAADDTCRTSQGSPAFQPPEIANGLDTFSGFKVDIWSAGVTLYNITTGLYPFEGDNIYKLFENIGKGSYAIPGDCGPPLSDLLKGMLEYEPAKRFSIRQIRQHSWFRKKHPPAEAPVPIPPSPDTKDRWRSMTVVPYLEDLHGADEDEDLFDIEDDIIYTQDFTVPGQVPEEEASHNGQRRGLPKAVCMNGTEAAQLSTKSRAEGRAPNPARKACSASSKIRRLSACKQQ

- Variants of: B1
- assay-comment: STK11 functional score (HeLa growth suppression), rescaled enrichment; synonymous median = 1, nonsense median = 0 (normalised score)
- applied-conditions: with HeLa; variant type: missense
Could you label it rule met if measured STK11 functional score is 1 or higher, and rule not met otherwise?

Incoming: Entry "V337T" : is its STK11 functional score no less than 1?
Outgoing: rule met

Incoming: Textbook exercise: given the entry "L286T" , state whether its STK11 functional score is greater than or equal to 1.
Outgoing: rule met

Incoming: Does the reported STK11 functional score for "I260T" fall at or above the 1 mark?
Outgoing: rule met

Incoming: Reported STK11 functional score reaches at least 1 for "V34A" ?
Outgoing: rule met

Incoming: Does the reported STK11 functional score for "T363Q" fall at or above the 1 mark?
Outgoing: rule met

Incoming: Form field: STK11 functional score at least 1? Entry: "P254R"
Outgoing: rule not met

Incoming: Decide: is the reported value of STK11 functional score for "T212A" equal to or greater than 1?
Outgoing: rule met

Incoming: Quick check: does "K329Q" have STK11 functional score greater than or equal to 1?
Outgoing: rule met

Incoming: Given "A377P" , state whether its STK11 functional score is at least 1.
Outgoing: rule met

Incoming: Does the reported STK11 functional score for "G171C" fall at or above the 1 mark?
Outgoing: rule not met

Incoming: API: above_or_equal(metric=STK11 functional score, cutoff=1) for item "Y60I"
Outgoing: rule met

Incoming: Assess whether reported STK11 functional score for "Q382G" sits at 1 or higher.
Outgoing: rule met

Incoming: Evaluate "S213M" : STK11 functional score at minimum 1?
Outgoing: rule met

Incoming: Determine whether measured STK11 functional score meets or exceeds 1 for "Q220H"
Outgoing: rule not met

Incoming: Hi, just wondering whether "A410G" shows STK11 functional score of 1 or higher.
Outgoing: rule met

Incoming: # check: STK11 functional score of "A398Q" is greater than or equal to 1
Outgoing: rule met

Incoming: Kindly determine if STK11 functional score recorded for "V372P" is above or exactly 1.
Outgoing: rule met

Incoming: Would you say "Q371A" shows STK11 functional score at minimum 1?
Outgoing: rule met

Incoming: Check this variant for STK11 functional score at or above 1: "G215L"
Outgoing: rule met

Incoming: Tell me whether STK11 functional score is at least 1 here: "K287L"
Outgoing: rule not met

Incoming: hey, is STK11 functional score for this one >= 1? "G408L"
Outgoing: rule met

Incoming: Does "S421F" have a reported STK11 functional score of at least 1?
Outgoing: rule met

Incoming: // inclusive: STK11 functional score at least 1? input: "A241C"
Outgoing: rule met

Incoming: Hello, I need to know if "P373W" has measured STK11 functional score not below 1. Thanks!
Outgoing: rule met

Incoming: // inclusive: STK11 functional score at least 1? input: "G288M"
Outgoing: rule met

Incoming: Dear colleague, could you confirm whether "A397E" has STK11 functional score at or above 1?
Outgoing: rule met

Incoming: Threshold query (STK11 functional score >= 1) on "C278Q"
Outgoing: rule not met

Incoming: Can "A316Q" be said to have STK11 functional score at or above 1?
Outgoing: rule met

Incoming: I'd appreciate it if you could say whether "P323F" has STK11 functional score at least equal to 1.
Outgoing: rule met

Incoming: Please check the record "F354I" and state if its STK11 functional score is at or above 1.
Outgoing: rule met

Incoming: # check: STK11 functional score of "D277T" is greater than or equal to 1
Outgoing: rule met

Incoming: Reported STK11 functional score reaches at least 1 for "S213W" ?
Outgoing: rule met

Incoming: Check this variant for STK11 functional score at or above 1: "D115S"
Outgoing: rule met

Incoming: Reported STK11 functional score reaches at least 1 for "A206T" ?
Outgoing: rule not met

Incoming: Does "Q170A" have a reported STK11 functional score of at least 1?
Outgoing: rule not met

Incoming: # check: STK11 functional score of "M136D" is greater than or equal to 1
Outgoing: rule not met

Incoming: Is STK11 functional score for "G56E" at or above 1?
Outgoing: rule met

Incoming: Test whether the variant "V243L" records STK11 functional score of 1 or higher.
Outgoing: rule not met

Incoming: Answer whether STK11 functional score of "R106L" is greater than or equal to 1.
Outgoing: rule met

Incoming: Exam item: decide whether the reported STK11 functional score for "A200H" is at least 1.
Outgoing: rule met

Incoming: Threshold query (STK11 functional score >= 1) on "Q123I"
Outgoing: rule not met

Incoming: Check the entry "E14M" : does STK11 functional score equal or exceed 1?
Outgoing: rule met

Incoming: Given "V243H" , state whether its STK11 functional score is at least 1.
Outgoing: rule not met

Incoming: Does "E291V" have a reported STK11 functional score of at least 1?
Outgoing: rule met

Incoming: Hello, I need to know if "G251F" has measured STK11 functional score not below 1. Thanks!
Outgoing: rule not met

Incoming: API: above_or_equal(metric=STK11 functional score, cutoff=1) for item "L80E"
Outgoing: rule met

Incoming: Assess whether reported STK11 functional score for "L117N" sits at 1 or higher.
Outgoing: rule met

Incoming: Determine whether measured STK11 functional score meets or exceeds 1 for "K191W"
Outgoing: rule not met

Incoming: STK11 functional score >= 1 for "N181P" ?
Outgoing: rule not met

Incoming: Decide: STK11 functional score of "Q364L" >= 1?
Outgoing: rule met

Incoming: Decide: is the reported value of STK11 functional score for "L245V" equal to or greater than 1?
Outgoing: rule not met

Incoming: Would you say "I322D" shows STK11 functional score at minimum 1?
Outgoing: rule met

Incoming: Test whether the variant "P314G" records STK11 functional score of 1 or higher.
Outgoing: rule met

Incoming: Threshold query (STK11 functional score >= 1) on "R103H"
Outgoing: rule met

Incoming: Does "D115W" have a reported STK11 functional score of at least 1?
Outgoing: rule not met

Incoming: Does STK11 functional score meet or surpass 1 for "D194I" ?
Outgoing: rule not met

Incoming: Quick check, STK11 functional score >= 1? "D30H"
Outgoing: rule met

Incoming: Item "G385R" with STK11 functional score of 1 or above?
Outgoing: rule met

Incoming: Exam item: decide whether the reported STK11 functional score for "I224E" is at least 1.
Outgoing: rule met

Incoming: Could you tell me if the measured STK11 functional score of "G61V" reaches 1 or more?
Outgoing: rule not met

Incoming: Check the entry "G91V" : does STK11 functional score equal or exceed 1?
Outgoing: rule not met

Incoming: Does the variant "E70I" have recorded STK11 functional score that is 1 or more?
Outgoing: rule met

Incoming: # check: STK11 functional score of "K403Q" is greater than or equal to 1
Outgoing: rule met

Incoming: Item "R333Y" with STK11 functional score of 1 or above?
Outgoing: rule met

Incoming: # bool: STK11 functional score of "D355P" >= 1
Outgoing: rule met

Incoming: Determine whether measured STK11 functional score meets or exceeds 1 for "P324W"
Outgoing: rule not met

Incoming: Tell me whether STK11 functional score is at least 1 here: "F255I"
Outgoing: rule met

Incoming: Quick check, STK11 functional score >= 1? "I177A"
Outgoing: rule not met

Incoming: // inclusive: STK11 functional score at least 1? input: "K235S"
Outgoing: rule met

Incoming: Confirm if STK11 functional score reported for the variant "T244P" is 1 or above.
Outgoing: rule not met

Incoming: Entry "M335C" : is its STK11 functional score no less than 1?
Outgoing: rule met

Incoming: Quick check: does "R310T" have STK11 functional score greater than or equal to 1?
Outgoing: rule not met

Incoming: Is reported STK11 functional score greater than or equal to 1 here: "G10W"
Outgoing: rule met

Incoming: Is it the case that "E98G" has STK11 functional score reaching or exceeding 1?
Outgoing: rule not met

Incoming: Check this variant for STK11 functional score at or above 1: "V143L"
Outgoing: rule met

Incoming: Does the reported STK11 functional score for "G408Y" fall at or above the 1 mark?
Outgoing: rule met

Incoming: Does STK11 functional score meet or surpass 1 for "E65W" ?
Outgoing: rule met

Incoming: In plain terms: is recorded STK11 functional score at least 1 for "M11G" ?
Outgoing: rule met

Incoming: Say whether "E65I" shows STK11 functional score of 1 or more.
Outgoing: rule not met

Incoming: Given "I29Y" , state whether its STK11 functional score is at least 1.
Outgoing: rule met

Incoming: Could you please find out whether "Q371E" has STK11 functional score that meets 1 or exceeds it?
Outgoing: rule met

Incoming: Check if STK11 functional score >= 1 (inclusive). Item: "M51A"
Outgoing: rule met

Incoming: Answer whether STK11 functional score of "F231D" is greater than or equal to 1.
Outgoing: rule met

Incoming: hey, is STK11 functional score for this one >= 1? "T328I"
Outgoing: rule met

Incoming: Hello, I need to know if "N109P" has measured STK11 functional score not below 1. Thanks!
Outgoing: rule not met

Incoming: Decide: is the reported value of STK11 functional score for "S378C" equal to or greater than 1?
Outgoing: rule met

Incoming: Quick check: does "Q100G" have STK11 functional score greater than or equal to 1?
Outgoing: rule met

Incoming: Does the variant "M18C" have recorded STK11 functional score that is 1 or more?
Outgoing: rule not met
